B1: Transcription elongation factor A N-terminal and central domain-containing protein, residues 30 to 77; numbered along this chain, Q8N8B7 (parent)
chain: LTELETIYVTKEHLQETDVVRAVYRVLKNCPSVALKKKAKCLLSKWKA

- Variants of: B1
- measurement description: abundance fitness (aPCA) (normalised: wild type 0, dead -1); higher = more abundant; growth selection in yeast, the domain comes from the species named
- test conditions: Homo sapiens
Measured abundance fitness of individual entries
I'd appreciate a reply containing only the number, no unit.

Incoming: Requested read-out: abundance fitness. Entry: "I7T"
Outgoing: 0.192

Continuing:
Incoming: Requested read-out: abundance fitness. Entry: "L27D"
Outgoing: -0.901

Incoming: Now give it for "E3D" too.
Outgoing: -0.209

Incoming: Now give it for "R25P" too.
Outgoing: -0.812

Incoming: Now give it for "S32Q" too.
Outgoing: -0.439

Incoming: Now give it for "H13M" too.
Outgoing: -0.133

Incoming: Now give it for "D18E" too.
Outgoing: -0.382

Incoming: Now give it for "I7C" too.
Outgoing: -0.541

Incoming: Now give it for "V23Q" too.
Outgoing: -0.901

Incoming: Now give it for "V9R" too.
Outgoing: 0.155

Incoming: Now give it for "T6E" too.
Outgoing: 0.126

Incoming: Now give it for "P31N" too.
Outgoing: -0.016

Incoming: Now give it for "E12Q" too.
Outgoing: -0.278

Incoming: Now give it for "Q15P" too.
Outgoing: 0.134

Incoming: Now give it for "C41K" too.
Outgoing: 0.171

Incoming: Now give it for "T2L" too.
Outgoing: -0.389

Incoming: Now give it for "R21Y" too.
Outgoing: -0.601

Incoming: Now give it for "R21L" too.
Outgoing: -0.88

Incoming: Now give it for "L43P" too.
Outgoing: -0.789

Incoming: Now give it for "A48P" too.
Outgoing: -0.565

Incoming: Now give it for "W46A" too.
Outgoing: 0.105
